B1: HDV Ribozyme (parent)
chain: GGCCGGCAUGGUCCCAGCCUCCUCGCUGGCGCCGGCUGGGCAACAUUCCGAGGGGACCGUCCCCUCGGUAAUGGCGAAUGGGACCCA

Variants of: B1
Experiment: self-cleavage, relative activity (ratio to wild type); higher = more cleavage; co-transcriptional
Item-by-item account of self-cleavage

>>> endpoint_result("C4A U9G")
0.383
>>> endpoint_result("C62G A77C")
0.353
>>> endpoint_result("A51U G59U")
1.02
>>> endpoint_result("C7A C26G")
0.554
>>> endpoint_result("G11C C61G")
0.217

Prompt line: I am curious: what self-cleavage value has been reported for U47G G73U ?
Response line: 0.458

Prompt line: Request: G5C C62U
Response line: 0.222

Prompt line: Request: G29A U69G
Response line: 0.0475
